Listing: glycan array binding signal (z-score) of selected binders
TESTED SYSTEM: Gal(b1-3)[Fuc(a1-4)]GlcNAc(b1-2)Man(a1-3)[Gal(b1-3)[Fuc(a1-4)]GlcNAc(b1-2)Man(a1-6)]Man(b1-4)GlcNAc(b1-4)[Fuc(a1-6)]GlcNAc
TEST: glycan array binding signal (z-score within array); higher = stronger binding
RUN PARAMETERS: glycan notation: IUPAC condensed, linker removed
The full list was thinned out, with the strongest signals kept by preference.
MEASURED PARAMETER: glycan array binding signal (z-score)

>  <BINDER>
Galatrox (Botrops atrox), P0DM53 (protein) NNCPQDWLPMNGLCYKIFDELKAWKDAEMFCRKYKPGCHLASIILYGESPEWAEGHSEVWLGLWDKKKDFSWEWTDR

>  <VALUE REPORTED>
-0.333

$$$$
>  <BINDER>
Epa9 (Candida glabrata), CAGL0A01386g (protein) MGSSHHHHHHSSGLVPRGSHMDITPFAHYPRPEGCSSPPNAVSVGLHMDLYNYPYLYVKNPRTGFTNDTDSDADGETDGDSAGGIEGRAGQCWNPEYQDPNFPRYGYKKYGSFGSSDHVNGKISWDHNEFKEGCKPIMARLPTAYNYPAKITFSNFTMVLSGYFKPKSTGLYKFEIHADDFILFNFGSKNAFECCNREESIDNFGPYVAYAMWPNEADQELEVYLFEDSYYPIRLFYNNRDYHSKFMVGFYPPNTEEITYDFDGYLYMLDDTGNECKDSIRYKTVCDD

>  <VALUE REPORTED>
-0.377

$$$$
>  <BINDER>
rPitB (Streptococcus pneumoniae), A0A0I7U739 (protein) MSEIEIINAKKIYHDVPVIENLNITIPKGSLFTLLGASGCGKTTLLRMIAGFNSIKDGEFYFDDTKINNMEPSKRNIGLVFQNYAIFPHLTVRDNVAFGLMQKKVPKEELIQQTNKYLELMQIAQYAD

>  <VALUE REPORTED>
2.09

$$$$
>  <BINDER>
CFEM-CGl (Candida glabrata), Q6FRS0 (protein) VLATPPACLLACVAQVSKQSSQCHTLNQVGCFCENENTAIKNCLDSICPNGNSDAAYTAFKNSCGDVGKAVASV

>  <VALUE REPORTED>
-0.165

$$$$
